This listing pairs molecules with measured HeLa Cell viability after treatment with analog (% viability).
Test system: HeLa cervical cancer cells
Protocol Description: HeLa cell viability after treatment with analog (cell count, cell viability analyzer)
Type: cell-based, human
Settings: 10 μM, three days, relative to DMSO vehicle
Quantity Measured: HeLa Cell viability after treatment with analog (% viability) (%)

{"columns": ["Molecule", "Units Of Measure", "Val"],
 "data": [
  ["CC(C)n1ccnc1/C=C/C(=O)/C=C/c1nccn1C(C)C", "%", 11.4],
  ["CN1CC(=Cc2nccs2)C(=O)C(=Cc2nccs2)C1", "%", 21.6],
  ["O=C(/C=C/c1cscn1)/C=C/c1cscn1", "%", 13.7],
  ["CC(C)n1ccnc1C=C1CN(C)CC(=Cc2nccn2C(C)C)C1=O", "%", 118.5],
  ["CCC(C)n1ccnc1C=C1CN(C)CC(=Cc2nccn2C(C)CC)C1=O (stereo not shown)", "%", 95.9],
  ["CN1CC(=Cc2cnn(C)c2)C(=O)C(=Cc2cnn(C)c2)C1", "%", 97.8],
  ["Cc1cc(C=C2CCCC(=Cc3cc(C)no3)C2=O)on1", "%", 15.9],
  ["Cn1cc(C=C2CCCC(=Cc3cnn(C)c3)C2=O)cn1", "%", 100],
  ["CC(C)Cn1ccnc1/C=C/C(=O)/C=C/c1nccn1CC(C)C", "%", 23.1],
  ["CC(C)n1ccnc1C=C1CCCC(=Cc2nccn2C(C)C)C1=O", "%", 85.1]
]}

Where do the numbers come from? From patent US9499529B2.
